- STUDY_TARGET: CCK-B receptors (CHO-CCK) (Homo sapiens, UniProt P32239)
- Construct: expressed in transfected cells; host or cells: CHO (CHO-CCK model cells)
- Sequence (P32239 1-447): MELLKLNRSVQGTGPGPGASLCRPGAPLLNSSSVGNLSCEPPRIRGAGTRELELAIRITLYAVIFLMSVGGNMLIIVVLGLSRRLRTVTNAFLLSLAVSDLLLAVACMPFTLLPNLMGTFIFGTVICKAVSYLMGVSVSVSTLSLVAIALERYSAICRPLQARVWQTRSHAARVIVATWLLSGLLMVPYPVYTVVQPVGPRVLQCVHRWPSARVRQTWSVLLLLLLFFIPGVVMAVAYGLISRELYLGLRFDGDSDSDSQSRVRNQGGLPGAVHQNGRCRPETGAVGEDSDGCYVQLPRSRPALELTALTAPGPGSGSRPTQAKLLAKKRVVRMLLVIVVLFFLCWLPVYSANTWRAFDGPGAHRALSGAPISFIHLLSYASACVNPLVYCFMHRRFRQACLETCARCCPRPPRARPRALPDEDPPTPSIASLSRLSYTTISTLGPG
- PROTOCOL: Calcium flux (Fluo-8) antagonist test on CHO-CCK model cells in presence of CCK8
- Format: cell-based
- EXPERIMENTAL_CONTEXT: in presence of 10 nM CCK8
Where a SMILES comes first, the peptide text is derived from it. [ ]: non-standard residue; d: D form. Phe(3-Br) = N[C@@H](Cc1cccc(Br)c1)C(=O)O; Nle = CCCC[C@H](N)C(=O)O
RECORDED_METRIC: EC50 (nM)

A. CSCC[C@H](NC(=O)[C@@H](Cc1cc2ccccc2[nH]1)NC(=O)[C@@H](N)CCC(=O)O)C(=O)N[C@@H](CC(=O)O)C(=O)N[C@@H](Cc1cccc(Br)c1)C(N)=O [HT-255, Glu-D-Trp-Met-Asp-Phe(3-Br)-NH2]
B. CSCC[C@H](NC(=O)[C@H](Cc1ccccc1)NC(C)=O)C(=O)N[C@@H](CC(=O)O)C(=O)N[C@@H](Cc1cccc(Br)c1)C(N)=O [HT-223, Ac-Phe-Met-Asp-Phe(3-Br)-NH2] (Ac-FMD[Phe(3-Br)]-NH2)
C. CCCC[C@H](NC(=O)[C@H](Cc1c[nH]c2ccccc12)NC(=O)CNC(=O)[C@H](CCCC)NC(C)=O)C(N)=O [HT-213, Ac-Nle-Gly-Trp-Nle-NH2] (Ac-[Nle]GW[Nle]-NH2)
D. CSCC[C@H](NC(=O)[C@H](Cc1cccc(Br)c1)NC(C)=O)C(=O)N[C@@H](CC(=O)O)C(=O)N[C@@H](Cc1cccc(Br)c1)C(N)=O [HT-224, Ac-Phe(3-Br)-Met-Asp-Phe(3-Br)-NH2] (Ac-[Phe(3-Br)]MD[Phe(3-Br)]-NH2)
Q: Rank descending by EC50: all 4 molecules from above. To answer, write out the labels according to the requested order.
Ans: C, B, D, A
(C: 4920 nM, B: 1880 nM, D: 80.3 nM, A: 40.3 nM)
